This collection of values is drawn from PubChem BioAssay (NCI).

ASSAY_REMARKS: NCI Yeast Anticancer Drug Screen. Data for the bub3 strain (AID 167)
EXPERIMENTAL_SETUP: S. cerevisiae bub3 mutant strain, at 5.0 µM (retest, dose inferred, filed as 0.5), hits give high values
Compounds without any hit were thinned out: in the full panel of roughly 79,000, 15% have a hit.
PROPERTY_MEASURED: growth inhibition (%)

{"columns": ["MOLECULE", "OBS_VALUE"],
 "data": [
  ["O=C(O)c1ccc2cc3ccccc3cc2c1", -29],
  ["CN(C)c1ccc(C(c2ccc(N(C)C)cc2)c2ccc3c(c2)OCO3)cc1", 99],
  ["Cn1c2c(c3ccccc31)CCN(CCN1CCN(c3ccccc3)CC1)C2=O", 32],
  ["N#CSCCSCc1ccc(Cl)cc1", -6],
  ["Cc1nn(C(=O)c2ccncc2)c(C)c1N=Nc1ccccc1[N+](=O)[O-]", -1],
  ["C=CCOc1c(CCC)cc(CN)cc1CCC", -3],
  ["CCCCCC(C)NCCOC(=O)c1ccccc1 (configuration not stated)", 3],
  ["COc1ccc(C(=O)CCc2c[nH]c3ccccc23)c(O)c1", 12],
  ["O=C(CCN1CCCCC1)N1CCc2c([nH]c3ccccc23)C1c1cccnc1 (configuration not stated)", 4],
  ["Clc1ccc(C2=CC(c3ccccc3)N3C(=N[C@H]4CCCC[C@@H]43)N2)cc1 (some centres not stated)", 14],
  ["Nc1nc(-c2ccccn2)cc2c(Cl)cccc12", -8],
  ["CCOc1ccc2c(c1)nc1cc(Cl)ccc1[n+]2C", 26]
]}
